Attribution: paper PMC9774391

target.entity: MAO-A (Homo sapiens)
Sequence (P21397 1-527): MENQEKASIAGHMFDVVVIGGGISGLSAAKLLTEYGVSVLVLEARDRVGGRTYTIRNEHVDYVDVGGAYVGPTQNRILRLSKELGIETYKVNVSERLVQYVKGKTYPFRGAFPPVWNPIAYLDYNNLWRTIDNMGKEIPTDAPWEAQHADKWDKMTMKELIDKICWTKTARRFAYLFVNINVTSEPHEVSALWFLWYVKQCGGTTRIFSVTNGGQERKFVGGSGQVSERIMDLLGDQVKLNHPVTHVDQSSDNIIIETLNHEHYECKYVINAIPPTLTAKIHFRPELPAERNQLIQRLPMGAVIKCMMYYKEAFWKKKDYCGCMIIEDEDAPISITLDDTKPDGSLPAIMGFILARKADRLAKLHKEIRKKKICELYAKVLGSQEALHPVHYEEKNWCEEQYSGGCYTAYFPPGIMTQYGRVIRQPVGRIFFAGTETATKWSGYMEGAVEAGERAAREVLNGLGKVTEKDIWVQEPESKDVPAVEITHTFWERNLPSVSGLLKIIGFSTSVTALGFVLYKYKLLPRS
experiment.summary: In vitro MAO-A inhibition assay (fluorometric)
Format: biochemical
test.conditions: 10^–3 M
Quick rule for you: inhibition at 1000 µM at 80% or higher means Fulfilled, lower means Not fulfilled.

inhibition at 1000 µM >= 80% for CCN1CCN(CC(=O)Nc2ccc(/C=C3\Cc4ccc(OC)cc4C3=O)cc2)CC1 ? Not fulfilled

// same read-out, input: C#CCN1CCN(CC(=O)Nc2ccc(/C=C3\Cc4ccc(OC)cc4C3=O)cc2)CC1 Not fulfilled

// same read-out, input: COc1ccc2c(c1)C(=O)/C(=C/c1ccc(NC(=O)CN(C)CCCN(C)C)cc1)C2 Fulfilled

// same read-out, input: COc1cc2c(cc1OC)C(=O)/C(=C/c1ccc(NC(=O)CN3CCN(CCCO)CC3)cc1)C2 Fulfilled

// same read-out, input: C#CCN(C)CC(=O)Nc1ccc(/C=C2\Cc3ccc(OC)cc3C2=O)cc1 Not fulfilled

// same read-out, input: C#CCN(C)CC(=O)Nc1ccc(/C=C2\Cc3cc(OC)c(OC)cc3C2=O)cc1 Fulfilled

// same read-out, input: COCCN1CCN(CC(=O)Nc2ccc(/C=C3\Cc4cc(OC)c(OC)cc4C3=O)cc2)CC1 Not fulfilled

// same read-out, input: C#CCN1CCN(CC(=O)Nc2ccc(/C=C3\Cc4cc(OC)c(OC)cc4C3=O)cc2)CC1 Fulfilled

// same read-out, input: COc1ccc2c(c1)C/C(=C\c1ccc(NC(=O)CN3CCN(CCCO)CC3)cc1)C2=O Not fulfilled

// same read-out, input: COc1cc2c(cc1OC)C(=O)/C(=C/c1ccc(NC(=O)CN3CCN(CCCN(C)C)CC3)cc1)C2 Fulfilled

// same read-out, input: CCN(CC)CCN(CC)CC(=O)Nc1ccc(/C=C2\Cc3ccc(OC)cc3C2=O)cc1 Fulfilled

// same read-out, input: CCN1CCN(CC(=O)Nc2ccc(/C=C3\Cc4cc(OC)c(OC)cc4C3=O)cc2)CC1 Fulfilled

// same read-out, input: COc1ccc2c(c1)C/C(=C\c1ccc(NC(=O)CN(C)CCCN(C)C)cc1)C2=O Fulfilled

// same read-out, input: COc1ccc2c(c1)C(=O)/C(=C/c1ccc(NC(=O)CN3CCN(CCCN(C)C)CC3)cc1)C2 Fulfilled

// same read-out, input: COc1ccc2c(c1)C(=O)/C(=C/c1ccc(NC(=O)CN3CCN(CCO)CC3)cc1)C2 Fulfilled

// same read-out, input: COc1cc2c(cc1OC)C(=O)/C(=C/c1ccc(NC(=O)CN3CCN(C)CC3)cc1)C2 Not fulfilled

// same read-out, input: C=CCN1CCN(CC(=O)Nc2ccc(/C=C3\Cc4cc(OC)ccc4C3=O)cc2)CC1 Not fulfilled

// same read-out, input: CCN1CCN(CC(=O)Nc2ccc(/C=C3\Cc4cc(OC)ccc4C3=O)cc2)CC1 Not fulfilled
